Values were extracted from patent US20160031999A1.

Below is a list of entries, each paired with its recorded IC50 value.
# TARGET: T1, human IL-11Rα on transfected cells (human, UniProt Q14626 23-422)
# T1 sequence: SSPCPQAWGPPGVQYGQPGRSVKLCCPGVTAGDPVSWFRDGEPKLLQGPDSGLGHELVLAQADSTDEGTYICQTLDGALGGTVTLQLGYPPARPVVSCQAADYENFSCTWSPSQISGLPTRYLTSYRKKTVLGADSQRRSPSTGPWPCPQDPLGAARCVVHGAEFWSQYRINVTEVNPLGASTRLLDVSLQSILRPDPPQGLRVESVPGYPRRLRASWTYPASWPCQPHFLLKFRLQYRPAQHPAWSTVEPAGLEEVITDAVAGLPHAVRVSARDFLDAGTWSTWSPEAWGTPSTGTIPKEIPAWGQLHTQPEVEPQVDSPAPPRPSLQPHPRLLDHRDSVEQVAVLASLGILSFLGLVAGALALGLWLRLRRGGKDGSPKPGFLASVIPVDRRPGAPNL
# ASSAY DETAILS: cell-based or functional assay
Write it as a number; the unit µg/mL goes unstated.

Recorded results for 4 binders are shown here.
BINDER | IC50 (µg/mL)
hu8E2-TS-29 (antibody, V domains shown) VH: EVQLLESGGGLVQPGGSLRLSCAASGFTFSWYSMTWVRQAPGKGLEWVSSIVPSGGHTQYADSVKGRFTISRDNSKNTLYLQMNSLRAEDTAVYYCAKGPGWGSFDLWGRGTLVTVSS VL: DIQMTQSPSSLSASVGDRVTITCQASQDINNYLNWYQQKPGKAPKLLIYDASNLQTGVPSRFSGSGSGTDFTFTISSLQPEDIATYYCQQSEEQSPTFGPGTKVDIK | 0.33
hu8E2-TS-322 (antibody, V domains shown) VH: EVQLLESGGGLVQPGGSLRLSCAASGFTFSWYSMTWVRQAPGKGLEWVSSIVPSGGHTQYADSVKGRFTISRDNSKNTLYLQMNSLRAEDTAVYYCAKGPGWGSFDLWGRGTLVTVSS VL: DIQMTQSPSSLSASVGDRVTITCQASQDVHHYMEWYQQKPGKAPKLLIYDASNLQTGVPSRFSGSGSGTDFTFTISSLQPEDIATYYCQQYDNLSPTFGPGTKVDIK | 0.33
hu8E2-TS-7 (antibody, V domains shown) VH: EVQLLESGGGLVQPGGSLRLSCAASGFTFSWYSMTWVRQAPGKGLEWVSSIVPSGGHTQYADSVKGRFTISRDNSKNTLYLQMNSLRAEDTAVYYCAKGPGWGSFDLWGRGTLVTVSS VL: DIQMTQSPSSLSASVGDRVTITCQASQDINNYLNWYQQKPGKAPKLLIYDASNLQTGVPSRFSGSGSGTDFTFTISSLQPEDIATYYCQQHENQSPTFGPGTKVDIK | 0.63
hu8E2-TS-32 (antibody, V domains shown) VH: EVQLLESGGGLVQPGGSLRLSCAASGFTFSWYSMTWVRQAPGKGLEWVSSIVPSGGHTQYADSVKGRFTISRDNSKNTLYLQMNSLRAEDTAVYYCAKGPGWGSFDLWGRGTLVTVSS VL: DIQMTQSPSSLSASVGDRVTITCQASQDINNYLNWYQQKPGKAPKLLIYDASNLQTGVPSRFSGSGSGTDFTFTISSLQPEDIATYYCTQWETQSPTFGPGTKVDIK | 0.41

Could you please provide reported IC50 for hu8E2-TS-63 (antibody, V domains shown) VH: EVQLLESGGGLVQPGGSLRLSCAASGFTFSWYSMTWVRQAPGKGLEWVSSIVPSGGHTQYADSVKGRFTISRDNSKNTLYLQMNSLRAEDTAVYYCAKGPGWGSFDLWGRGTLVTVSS VL: DIQMTQSPSSLSASVGDRVTITCQASQDINNYLNWYQQKPGKAPKLLIYDASNLQTGVPSRFSGSGSGTDFTFTISSLQPEDIATYYCQQYDTQQPNFGPGTKVDIK ? Thanks!
0.27
